- testedTarget: human orexin-1 receptor (Homo sapiens)
- Sequence (O43613 whole entry): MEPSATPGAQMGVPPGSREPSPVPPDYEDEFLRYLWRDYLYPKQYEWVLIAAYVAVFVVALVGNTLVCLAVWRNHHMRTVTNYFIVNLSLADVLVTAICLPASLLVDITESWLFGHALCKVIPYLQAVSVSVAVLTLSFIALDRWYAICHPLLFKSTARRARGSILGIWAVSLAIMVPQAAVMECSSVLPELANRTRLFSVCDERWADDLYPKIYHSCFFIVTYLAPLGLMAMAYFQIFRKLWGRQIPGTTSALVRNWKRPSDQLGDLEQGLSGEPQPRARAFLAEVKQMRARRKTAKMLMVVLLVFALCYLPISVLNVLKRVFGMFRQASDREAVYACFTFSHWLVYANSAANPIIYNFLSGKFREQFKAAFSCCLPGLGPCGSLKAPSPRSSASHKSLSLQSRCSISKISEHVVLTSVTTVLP
- procedureText: FLIPR intracellular calcium assay, orexin receptor antagonistic activity (OX1)
- experimentalConditions: CHO cells expressing human orexin-1 receptor; agonist 3 nM orexin-A; normalized to on-plate reference; * geomean n = 5, *2 geomean n = 2
recordedMetric: IC50

{"columns": ["compound", "IC50"],
 "data": [
  ["CCOc1ccccc1C1OCC(=O)N1Cc1ccc(Cl)cc1 (stereo not drawn)", "> 10 µM"],
  ["CCOc1ccccc1C1OCC(=O)N1Cc1ccccc1F (stereo not drawn)", "> 10 µM"]
]}

Next, consider the following compound.
Consider the compound CCOc1ccccc1C1OCC(=O)N1Cc1ccc(F)cc1 (stereo not drawn) . State its measured IC50.
> 10 µM

Values compiled from patent US8329706B2.
